Target: Calcium/calmodulin-dependent protein kinase type IV (Homo sapiens) (UniProt Q16566);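 further: each value is the mean of the measured CAMK4 inhibition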
Sequence (Q16566 whole entry): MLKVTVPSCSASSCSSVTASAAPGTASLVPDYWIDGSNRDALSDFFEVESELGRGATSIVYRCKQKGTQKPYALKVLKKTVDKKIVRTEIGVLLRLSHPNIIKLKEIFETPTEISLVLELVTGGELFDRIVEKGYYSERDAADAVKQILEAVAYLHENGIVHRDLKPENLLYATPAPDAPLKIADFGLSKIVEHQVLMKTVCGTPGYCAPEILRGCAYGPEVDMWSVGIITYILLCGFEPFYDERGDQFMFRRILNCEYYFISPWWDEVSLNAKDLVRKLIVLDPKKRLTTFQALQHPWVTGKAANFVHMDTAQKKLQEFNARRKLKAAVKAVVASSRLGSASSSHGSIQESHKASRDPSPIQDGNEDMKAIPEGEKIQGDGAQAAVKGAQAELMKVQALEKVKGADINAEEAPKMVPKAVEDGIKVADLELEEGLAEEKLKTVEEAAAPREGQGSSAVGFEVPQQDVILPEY
Settings: at 1 µM
Answer each item with its documented inhibition.
Answers are plain numbers, in %.

Give me inhibition for each of these compounds, listed below.
1. [O-][S+]1CCN(Cc2ccc(-c3ccc4ncnc(Nc5ccc(OCc6cccc(F)c6)c(Cl)c5)c4c3)o2)CC1
2. COc1cc2ncn(-c3cc(OCc4ccccc4C(F)(F)F)c(C(=O)N(C)C)s3)c2cc1OC
3. COc1cc(Nc2nccc(Nc3ccc4c(C)n[nH]c4c3)n2)cc(OC)c1OC
4. Fc1ccc(-c2cc(-c3c[nH]nc3-c3ccccn3)ccn2)cc1
5. CNC(=O)c1cc(-c2ccc(F)cc2)cc(-c2ccc(S(=O)(=O)N3CCCC3)cc2)c1N

## Output
2.28
3.28
4.68
-4.94
1.17

Working through the 3 compounds below one at a time, give inhibition for each.
1. CC(C)(CO)CNC(=O)c1ccc2c(c1)/C(=N/Nc1ccc(S(N)(=O)=O)cc1)C(=O)N2
2. CC(=O)Nc1cccc(C#Cc2cncnc2Nc2ccc(OCc3cccc(F)c3)c(Cl)c2)c1
3. Nc1nc(-c2cccc(Cl)c2)c(-c2ccc3ncccc3n2)s1

## Output
1. -0.51
2. 3.24
3. -4.36

## Input Can you look up the measured inhibition of COc1ccc(CNC(=O)c2ccc(-c3cc(-c4nnc(C)o4)ccc3C)cc2)cc1 for me?
## Output -4.17

====

Target: Macrophage colony-stimulating factor 1 receptor (Homo sapiens) (UniProt P07333);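 further: mean inhibition of FMS, from the GSK PKIS screening set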
Sequence (P07333 whole entry): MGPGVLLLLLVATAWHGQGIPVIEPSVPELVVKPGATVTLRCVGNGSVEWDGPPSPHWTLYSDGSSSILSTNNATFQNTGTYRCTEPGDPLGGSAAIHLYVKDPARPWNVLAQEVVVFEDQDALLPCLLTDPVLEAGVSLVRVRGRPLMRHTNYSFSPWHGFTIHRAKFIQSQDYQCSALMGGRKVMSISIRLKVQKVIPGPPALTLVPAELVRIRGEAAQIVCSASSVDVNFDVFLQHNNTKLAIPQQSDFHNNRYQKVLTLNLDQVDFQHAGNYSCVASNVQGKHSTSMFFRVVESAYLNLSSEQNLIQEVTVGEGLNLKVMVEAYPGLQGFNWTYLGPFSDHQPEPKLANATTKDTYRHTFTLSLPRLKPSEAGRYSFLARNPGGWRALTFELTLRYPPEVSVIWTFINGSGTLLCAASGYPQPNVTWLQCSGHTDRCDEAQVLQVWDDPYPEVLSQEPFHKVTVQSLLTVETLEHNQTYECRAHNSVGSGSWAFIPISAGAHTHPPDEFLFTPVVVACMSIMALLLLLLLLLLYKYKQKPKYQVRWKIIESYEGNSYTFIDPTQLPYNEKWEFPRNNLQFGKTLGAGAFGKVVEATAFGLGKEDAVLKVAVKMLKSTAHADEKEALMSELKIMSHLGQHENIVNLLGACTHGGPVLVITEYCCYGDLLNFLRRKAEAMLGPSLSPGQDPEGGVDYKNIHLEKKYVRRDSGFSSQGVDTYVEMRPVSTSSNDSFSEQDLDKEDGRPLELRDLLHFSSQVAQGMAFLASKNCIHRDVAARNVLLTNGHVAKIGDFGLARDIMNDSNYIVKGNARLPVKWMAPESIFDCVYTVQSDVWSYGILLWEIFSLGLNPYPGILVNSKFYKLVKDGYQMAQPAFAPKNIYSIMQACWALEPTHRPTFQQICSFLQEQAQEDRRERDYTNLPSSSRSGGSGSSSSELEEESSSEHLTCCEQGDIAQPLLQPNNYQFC
Conditions: at 1 µM
Could you please report measured inhibition for the items listed next?
Numbers only, in %.

Known results for molecules:
* CS(=O)(=O)CCNCc1ccc(-c2ccc3ncnc(Nc4ccc(OCc5ccccc5)c(C(F)(F)F)c4)c3c2)o1 | 1.56
* N#Cc1c(NC(=O)c2ccc(F)cc2)sc2c1CCCC2 | -0.85
* CCn1c(-c2nonc2N)nc2c(C#CC(C)(C)O)nc(OC[C@H](N)c3ccccc3)cc21 | 5.51

Give one value of inhibition per listed molecule.
1. COc1cccc(-c2c[nH]c3c(N/N=C/c4ccncc4)ncnc23)c1
2. COc1ccc(-c2nn3ncccc3c2-c2ccnc(Nc3ccc4c(c3)OCCO4)n2)cc1
3. COc1cc(Nc2nccc(Nc3ccc4c(C)n[nH]c4c3)n2)cc(OC)c1OC
4. c1ccc(COc2ccc(Nc3ncnc4ccc(-c5ccco5)cc34)cc2)cc1
5. CNC(=O)c1cc(-c2ccc(F)cc2)cc(-c2ccc(S(=O)(=O)N3CCCC3)cc2)c1N
6. Fc1ccc(-c2nn3ccccc3c2-c2ccncc2)cc1
7. COc1ccc2c(-c3ccnc(Nc4cccc(OC(F)(F)F)c4)n3)cnn2n1

## Output
[68.6, 66.8, 94.1, 0.74, 1.28, 7.67, 33.3]

====

Target: Phosphatidylinositol 4,5-bisphosphate 3-kinase catalytic subunit alpha isoform (Homo sapiens);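 further: values are mean inhibition figures from the GSK PKIS kinase panel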
Conditions: at 0.1 µM
endpointLabel: inhibition (%)
One number for each entry, in %.

- CCc1nn2ncccc2c1-c1ccnc(NC2CC2)n1: 1.28
- CC1=C(C(=O)Nc2cc(Cl)c3[nH]ncc3c2)C(c2ccc(C(F)(F)F)cc2)CC(=O)N1 (centres undefined): 2.86
- CC(=O)NCc1cccc(C#Cc2cncnc2Nc2ccc(OCc3cccc(F)c3)c(Cl)c2)c1: -1.17
- COC(=O)Nc1nc2ccc(S(=O)(=O)c3ccc(NC(=O)Nc4cc(C(F)(F)F)ccc4F)cc3)cc2[nH]1: 0.87
- CNC(=O)c1cc(-c2ccc(F)cc2)cc(-c2ccc(S(=O)(=O)N3CCCC3)cc2)c1N: 2.34
- Fc1cccc(COc2ccc(Nc3ncnc4sc(-c5ccco5)cc34)cc2Cl)c1: 6.18

Hi, could you look up inhibition for each item in my list?
1. [O-][S+]1CCN(Cc2ccc(-c3ccc4ncnc(Nc5ccc(OCc6cccc(F)c6)c(Cl)c5)c4c3)o2)CC1
2. N#Cc1c(NC(=O)CN2CCOCC2)sc2c1CCCC2
3. COc1cc(N2CCN(C(C)C)CC2)ccc1Nc1nc(Nc2ccc(F)cc2C(N)=O)c2cc[nH]c2n1

## Output
1. 5.72
2. 3.43
3. 0.53
